Test system: Echinochloa crus-galli
Protocol: Test Example 12: herbicidal effect test by treatment during growing period in paddy field
Type: in vivo
Conditions: 120 g/10a; treatment seven days after sowing in flooded paddy pot; assessed 14 days after treatment
Measured Weed suppression rate (%) Echinochloa crus-galli, listed per entry.
Dear colleague, please return just the value in %, with no unit written.

Illustrative cases are given below, each with its answer.
| Molecule | Quantitative Result |
| --- | --- |
| CC(C)N(C(=O)n1cnn(S(=O)(=O)N(C)C)c1=O)c1ccc(Cl)cc1F [Compound 11-1072] | 100 |
| CC(C)N(C(=O)n1cnn(S(=O)(=O)c2ccccc2F)c1=O)c1c(F)cc(F)cc1F [Compound 11-406] | 100 |
| CC(C)N(C(=O)n1cnn(S(=O)(=O)C2CC2)c1=O)c1ncc(Cl)cc1Cl [Compound 11-234] | 90 |

Req: Form: Entry = C=CS(=O)(=O)n1ncn(C(=O)N(c2ccc(F)cc2F)C(C)C)c1=O [Compound 11-134] | System = Echinochloa crus-galli | Weed suppression rate (%) Echinochloa crus-galli = ____
Resp: 70

Req: Follow-up entry: CC(C)N(C(=O)n1cnn(S(=O)(=O)C2CC2)c1=O)c1c(F)cccc1F [Compound 11-191]
Resp: 100

====

System: Lindernia pyxidaria
Protocol: Test Example 12: herbicidal effect test by treatment during growing period in paddy field
Type: in vivo
Conditions: 120 g/10a; treatment seven days after sowing in flooded paddy pot; assessed 14 days after treatment
Measured Weed suppression rate (%) Lindemia pyxidaria, listed per entry.
Dear colleague, please return just the value in %, with no unit written.

Illustrative cases are given below, each with its answer.
| Chemical Structure | System Tested | Quantitative Result |
| --- | --- | --- |
| CC(C)N(C(=O)n1cnn(S(=O)(=O)C(C)C)c1=O)c1ncc(Cl)cc1Cl | Lindernia pyxidaria | 90 |
| CC(C)N(C(=O)n1cnn(S(=O)(=O)c2ccc(C(C)(C)C)cc2)c1=O)c1ccc(F)cc1Cl | Lindernia pyxidaria | 70 |

Req: Could you share which Weed suppression rate (%) Lindemia pyxidaria value was measured for "CC(C)N(C(=O)n1cnn(S(=O)(=O)C2CCC2)c1=O)c1ccc(F)cc1F" ?
Resp: 90

Req: Follow-up entry: "CC(C)N(C(=O)n1cnn(S(=O)(=O)C2CC2)c1=O)c1ccccc1"
Resp: 70

Req: Follow-up entry: "CC(C)N(C(=O)n1cnn(S(C)(=O)=O)c1=O)c1ccccc1"
Resp: 80

Req: Follow-up entry: "CC(C)N(C(=O)n1cnn(S(=O)(=O)c2ccc(F)cc2)c1=O)c1cccc(F)c1F"
Resp: 100

Req: Follow-up entry: "CC(C)N(C(=O)n1cnn(S(=O)(=O)c2cccs2)c1=O)c1ccc(F)cc1"
Resp: 80

Req: Follow-up entry: "CC(C)N(C(=O)n1cnn(S(=O)(=O)c2cccs2)c1=O)c1ccc(C#N)cc1Cl"
Resp: 80

Req: Follow-up entry: "CC(C)N(C(=O)n1cnn(S(=O)(=O)c2cccs2)c1=O)c1cccc(F)c1F"
Resp: 80

Req: Follow-up entry: "Cc1cc(C)c(S(=O)(=O)n2ncn(C(=O)N(c3ccccc3)C(C)C)c2=O)c(C)c1"
Resp: 90

Req: Follow-up entry: "CCS(=O)(=O)n1ncn(C(=O)N(C)c2ccc(F)cc2F)c1=O"
Resp: 70

Req: Follow-up entry: "CC(C)N(C(=O)n1cnn(S(=O)(=O)C2CCCC2)c1=O)c1ccc(F)cc1F"
Resp: 90

Req: Follow-up entry: "Cc1ccc(S(=O)(=O)n2ncn(C(=O)N(c3ccccc3)C(C)C)c2=O)cc1"
Resp: 80

Req: Follow-up entry: "CC(C)N(C(=O)n1cnn(S(=O)(=O)c2ccc(Cl)cc2)c1=O)c1ccc(F)cc1F"
Resp: 90

Req: Follow-up entry: "CC(C)N(C(=O)n1cnn(S(=O)(=O)c2ccccc2Cl)c1=O)c1c(F)cc(F)cc1F"
Resp: 70

Req: Follow-up entry: "Cc1cc(Cl)ccc1N(C(=O)n1cnn(S(=O)(=O)N(C)C)c1=O)C(C)C"
Resp: 80
